The reported numbers originate from patent US10927141B2.

- Type: physicochemical
- applied_conditions: Dark control
This listing pairs compounds with measured Final purity.
# print the numeric value only

Below, each entry is followed by its recorded Final purity result.
COC[C@@]1(O)CC[C@@]2(C)[C@@H](CC[C@@H]3[C@@H]2CC[C@]2(C)[C@@H](C(=O)Cn4ccnc4)CC[C@@H]32)C1.O=C(O)CC(=O)O [Malonate (Form A)]	99.0
COCC1(O)CCC2(C)C(CCC3C2CCC2(C)C(C(=O)Cn4ccnc4)CCC32)C1.Cl (stereo not drawn) [Hydrochloride (Form C)]	99.2
COCC1(O)CCC2(C)C(CCC3C2CCC2(C)C(C(=O)Cn4ccnc4)CCC32)C1.O=C(O)CC(O)C(=O)O [L-Malate (Form A)]	99.3
COCC1(O)CCC2(C)C(CCC3C2CCC2(C)C(C(=O)Cn4ccnc4)CCC32)C1.O=S(=O)(O)CCO (stereo not drawn) [Isethionate (Form A)]	98.8
COCC1(O)CCC2(C)C(CCC3C2CCC2(C)C(C(=O)Cn4ccnc4)CCC32)C1.O=C(O)c1ccc2ccccc2c1O (stereo not drawn) [1-hydroxy-2-napthoate (Form A)]	91.96
COCC1(O)CCC2(C)C(CCC3C2CCC2(C)C(C(=O)Cn4ccnc4)CCC32)C1.Cc1ccc(S(=O)(=O)O)cc1 (stereo not drawn) [Tosylate (Form A)]	99.5
COC[C@@]1(O)CC[C@@]2(C)[C@@H](CC[C@@H]3[C@@H]2CC[C@]2(C)[C@@H](C(=O)Cn4ccnc4)CC[C@@H]32)C1.O=C(O)C(=O)O [Oxalate (Form A)]	98.9
COC[C@@]1(O)CC[C@@]2(C)[C@@H](CC[C@@H]3[C@@H]2CC[C@]2(C)[C@@H](C(=O)Cn4ccnc4)CC[C@@H]32)C1.O=C(O)C[C@H](O)C(=O)O [L-Malate (Form B)]	97.5

Next item in the queue.
Which measured Final purity value corresponds to COC[C@@]1(O)CC[C@@]2(C)[C@@H](CC[C@@H]3[C@@H]2CC[C@]2(C)[C@@H](C(=O)Cn4ccnc4)CC[C@@H]32)C1.Cl [Hydrochloride (Form A)] ?
99.5

----------
- Type: physicochemical
- applied_conditions: Dark control
parameter_measured: XRPD pattern

Br.COCC1(O)CCC2(C)C(CCC3C2CCC2(C)C(C(=O)Cn4ccnc4)CCC32)C1 (stereo not shown) [Compound 1 HBr (Form B)]	Form B
COC[C@@]1(O)CC[C@@]2(C)[C@@H](CC[C@@H]3[C@@H]2CC[C@]2(C)[C@@H](C(=O)Cn4ccnc4)CC[C@@H]32)C1.O=C(O)CC(O)(CC(=O)O)C(=O)O [Compound 1 Citrate (Form B)]	Form B

----------
- assay_comment: Dynamic vapor sorption (DVS), gravimetric moisture sorption
- Format: physicochemical
- applied_conditions: at 80% Relative Humidity, 25° C.
parameter_measured: gravimetric moisture sorption

COC[C@@]1(O)CC[C@@]2(C)[C@@H](CC[C@@H]3[C@@H]2CC[C@]2(C)[C@@H](C(=O)Cn4ccnc4)CC[C@@H]32)C1.O=C(O)CC(O)(CC(=O)O)C(=O)O [Compound 1 Citrate (Form A)]	about 3.6 % (by weight)
COCC1(O)CCC2(C)C(CCC3C2CCC2(C)C(C(=O)Cn4ccnc4)CCC32)C1.Cl (stereo not drawn) [Compound 1 Hydrochloride (Form A)]	about 3.6 % (by weight)

----------
- Type: physicochemical
- applied_conditions: 1.2 million lux-hrs
parameter_measured: Final purity
# print the numeric value only

Below, each entry is followed by its recorded Final purity result.
COC[C@@]1(O)CC[C@@]2(C)[C@@H](CC[C@@H]3[C@@H]2CC[C@]2(C)[C@@H](C(=O)Cn4ccnc4)CC[C@@H]32)C1.O=C1O[C@H]([C@@H](O)CO)C(O)=C1O [Ascorbate (Form A)]	96.8
Br.COCC1(O)CCC2(C)C(CCC3C2CCC2(C)C(C(=O)Cn4ccnc4)CCC32)C1 (stereo not drawn) [Compound 1 HBr (Form B)]	98.4
COCC1(O)CCC2(C)C(CCC3C2CCC2(C)C(C(=O)Cn4ccnc4)CCC32)C1.CS(=O)(=O)O (stereo not drawn) [Mesylate (Form A)]	99.3

Which measured Final purity value corresponds to CCS(=O)(=O)O.COCC1(O)CCC2(C)C(CCC3C2CCC2(C)C(C(=O)Cn4ccnc4)CCC32)C1 (stereo not drawn) [Ethanesulfonate (Form A)] ?
97.7

And what about the compound COCC1(O)CCC2(C)C(CCC3C2CCC2(C)C(C(=O)Cn4ccnc4)CCC32)C1.O=S(=O)(O)c1ccc2ccccc2c1 (stereo not drawn) [Napsylate (Form A)] ?
99.0

And what about the compound COCC1(O)CCC2(C)C(CCC3C2CCC2(C)C(C(=O)Cn4ccnc4)CCC32)C1.O=C(O)c1ccc2ccccc2c1O (stereo not drawn) [1-hydroxy-2-napthoate (Form A)] ?
92.64
